Test target: Amine oxidase [flavin-containing] B (Homo sapiens)
Sequence (P27338 whole entry): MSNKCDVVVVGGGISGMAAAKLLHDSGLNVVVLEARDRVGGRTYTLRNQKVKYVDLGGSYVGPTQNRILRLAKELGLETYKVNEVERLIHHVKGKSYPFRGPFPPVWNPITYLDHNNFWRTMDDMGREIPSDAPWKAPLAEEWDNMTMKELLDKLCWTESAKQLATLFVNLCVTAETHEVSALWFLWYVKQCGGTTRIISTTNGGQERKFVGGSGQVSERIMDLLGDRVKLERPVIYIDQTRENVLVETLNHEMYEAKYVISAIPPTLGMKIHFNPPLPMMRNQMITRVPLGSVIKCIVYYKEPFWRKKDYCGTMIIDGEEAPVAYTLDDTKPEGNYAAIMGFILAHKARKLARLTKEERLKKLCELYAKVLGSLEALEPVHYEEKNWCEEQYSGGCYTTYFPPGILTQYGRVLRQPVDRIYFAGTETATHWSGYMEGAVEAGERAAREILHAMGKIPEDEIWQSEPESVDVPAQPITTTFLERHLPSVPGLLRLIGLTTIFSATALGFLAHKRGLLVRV
Run description: Inhibition of recombinant human MAO-B expressed in baculovirus infected BTI insect cells using tyramine as substrate preincubated for 30 mins followed by substrate addition measured after 60 mins by amplex red reagent based fluorescence assay
So I've got a bunch of compounds here, and I need their IC50 values.
Give bare numbers, in nM.

Chemical string | IC50 / nM
O=C(Nc1nc2ccccc2[nH]1)c1ccccc1 | 5000

Answer for every listed entry: what is its IC50? The entries follow.
1. Cc1ccccc1COC(=O)c1nn(-c2ccccc2)nc1N
2. Cc1ccc(COC(=O)c2nn(-c3ccccc3)nc2N)cc1
3. Nc1nn(-c2ccccc2)nc1C(=O)OCc1ccccc1
4. C[C@@H]1Oc2ccc(Nc3ncnc4c3oc3ccccc34)cc2NC1=O

[500, 3800, 380, 1700]

* * *

Test target: Adenosine receptor A2a (Homo sapiens)
Sequence (P29274 whole entry): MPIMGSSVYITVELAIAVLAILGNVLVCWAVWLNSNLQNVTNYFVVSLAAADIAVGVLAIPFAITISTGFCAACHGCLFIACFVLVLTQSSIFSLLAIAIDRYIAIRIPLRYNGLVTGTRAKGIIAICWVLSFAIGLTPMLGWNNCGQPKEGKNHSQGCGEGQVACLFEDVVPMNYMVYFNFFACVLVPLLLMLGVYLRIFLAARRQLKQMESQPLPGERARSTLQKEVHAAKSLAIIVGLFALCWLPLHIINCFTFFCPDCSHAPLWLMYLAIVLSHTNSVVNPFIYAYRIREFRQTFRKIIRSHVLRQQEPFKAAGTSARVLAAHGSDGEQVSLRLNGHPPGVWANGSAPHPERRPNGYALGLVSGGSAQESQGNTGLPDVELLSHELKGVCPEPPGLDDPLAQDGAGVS
Criterion: Ki strictly less than 500 nM. Met: 1.0. Not met: 0.0.

Some solved cases for reference:
Chemical string | Cat
O=C(Nc1nc2ccccc2[nH]1)c1ccccc1 | 0.0
C[C@@H]1Oc2ccc(Nc3ncnc4c3oc3ccccc34)cc2NC1=O | 0.0

Does Cc1ccc(COC(=O)c2nn(-c3ccccc3)nc2N)cc1 have Ki strictly under 500 nM?
1.0

Please let me know if Cc1cccc(-n2nc(N)c(C(=O)CCc3ccccc3)n2)c1 shows Ki below 500 nM.
1.0

Say whether its Ki is strictly beneath 500 nM. Entry: Cc1ccccc1COC(=O)c1nn(-c2ccccc2)nc1N
1.0

State whether 500 nM exceeds Ki recorded for Nc1nn(-c2ccccc2)nc1C(=O)CCc1ccccc1 .
0.0

Take the compound COc1cccc(COC(=O)c2nn(-c3ccccc3)nc2N)c1 and say whether its Ki is less than 500 nM.
1.0

Please let me know if COc1cccc2nc(NC(=O)c3ccccc3)[nH]c12 shows Ki below 500 nM.
0.0
